List of melting point values.
READOUT_NAME: melting point

[[record]]
compound = "CNC(=O)c1ccc(-c2ccc(-c3ccc4c(c3)COC4=O)s2)cc1"
recorded_measurement = "299 to 302 °C"

[[record]]
compound = "CC(O)CNC(=O)c1ccc(-c2ccc(-c3ccc4c(c3)COC4=O)s2)cc1O (centres unmarked)"
recorded_measurement = "241 to 244 °C"

[[record]]
compound = "O=C1OCc2cc(-c3ccc(-c4ccccc4)s3)ccc21"
recorded_measurement = "231 to 233 °C"

[[record]]
compound = "Nc1cc(-c2ccc(-c3ccc4c(c3)COC4=O)s2)ccc1C(=O)NCCN1CCOCC1"
recorded_measurement = "209 to 211 °C"

[[record]]
compound = "CSc1ccc(-c2ccc(-c3ccc4c(c3)COC4=O)s2)cc1"
recorded_measurement = "239 to 241 °C"


###

MEASUREMENT_DESCRIPTION: Plasma stability, human plasma
Format: in vitro ADME
TEST_CONDITIONS: % parent remaining at 24 h, 37 °C
READOUT_NAME: Plasma stability (% at 24 h) Human

[[record]]
compound = "NC(=O)c1ccc(-c2ccc(-c3ccc4c(c3)COC4=O)s2)cc1O [Compound 48]"
recorded_measurement = "49%"

[[record]]
compound = "NC(=O)c1ccc(-c2ccc(-c3ccc4c(c3)COC4=O)s2)cn1 [Compound 67]"
recorded_measurement = "39%"

[[record]]
compound = "NC(=O)c1ccc(-c2ccc(-c3ccc4c(c3)COC4=O)s2)cc1 [Compound 23]"
recorded_measurement = "46%"

[[record]]
compound = "CS(=O)(=O)Nc1ccc(-c2ccc(-c3ccc4c(c3)COC4=O)s2)cc1 [Compound 63]"
recorded_measurement = "70%"

[[record]]
compound = "O=C1OCc2cc(-c3ccc(-c4ccc(CO)cc4)s3)ccc21 [Compound 59]"
recorded_measurement = "73%"


###

MEASUREMENT_DESCRIPTION: Toxicity to KHYG-1 NK cells (Trypan blue exclusion)
TEST_CONDITIONS: human
List of viability at 24 h, 20 µM values.
READOUT_NAME: viability at 24 h, 20 µM (%)

[[record]]
compound_smiles = "NC(=O)c1ccc(-c2ccc(-c3ccc4c(c3)COC4=O)s2)cc1O"
recorded_measurement = 92

[[record]]
compound_smiles = "O=C1OCc2cc(-c3ccc(-c4ccc(CO)cc4)s3)ccc21"
recorded_measurement = 79

[[record]]
compound_smiles = "NC(=O)c1ccc(-c2ccc(-c3ccc4c(c3)COC4=O)s2)cc1"
recorded_measurement = 90

[[record]]
compound_smiles = "NC(=O)c1ccc(-c2ccc(-c3ccc4c(c3)COC4=O)s2)cn1"
recorded_measurement = 82


###

MEASUREMENT_DESCRIPTION: Plasma stability, mouse plasma
Format: in vitro ADME
TEST_CONDITIONS: % parent remaining at 24 h, 37 °C
Description: Preliminary stability studies were carried out by incubation in human or mouse plasma at 37 °C with the percentage parent remaining measured at 24 h (Table 2). […] At the end of the study duration, samples were transferred to -80 °C until ready to analyse by HPLC-DAD. […] Calculation: The % loss was calculated based on peak area using the following formula: (peak area time “0”- peak area time “24h”)/peak area time “0” multiplied by 100. % Remaining = 100 - % loss.
READOUT_NAME: Plasma stability (% at 24 h) Mouse (%)

[[record]]
compound = "NC(=O)c1ccc(-c2ccc(-c3ccc4c(c3)COC4=O)s2)cn1 [Compound 67]"
uom = "%"
recorded_measurement = 66

[[record]]
compound = "NC(=O)c1ccc(-c2ccc(-c3ccc4c(c3)COC4=O)s2)cc1 [Compound 23]"
uom = "%"
recorded_measurement = 75

[[record]]
compound = "NC(=O)c1ccc(-c2ccc(-c3ccc4c(c3)COC4=O)s2)cc1O [Compound 48]"
uom = "%"
recorded_measurement = 75

[[record]]
compound = "O=C1OCc2cc(-c3ccc(-c4ccc(CO)cc4)s3)ccc21 [Compound 59]"
uom = "%"
recorded_measurement = 87

[[record]]
compound = "CS(=O)(=O)Nc1ccc(-c2ccc(-c3ccc4c(c3)COC4=O)s2)cc1 [Compound 63]"
uom = "%"
recorded_measurement = 80


###

READOUT_NAME: melting point

[[record]]
compound_smiles = "COc1ccccc1-c1ccc(-c2ccc3c(c2)COC3=O)s1"
recorded_measurement = "190 to 192 °C"

[[record]]
compound_smiles = "Cc1ccc(-c2ccc(-c3ccc4c(c3)COC4=O)s2)cc1"
recorded_measurement = "184 to 186 °C"

[[record]]
compound_smiles = "CC(C)(C)NS(=O)(=O)c1ccc(-c2ccc(-c3ccc4c(c3)COC4=O)s2)cc1"
recorded_measurement = "255 to 257 °C"

[[record]]
compound_smiles = "Cc1cccc(-c2ccc(-c3ccc4c(c3)COC4=O)s2)c1"
recorded_measurement = "192 to 194 °C"

[[record]]
compound_smiles = "CN(C)C(=O)c1ccc(-c2ccc(-c3ccc4c(c3)COC4=O)s2)cc1"
recorded_measurement = "290 to 292 °C"

[[record]]
compound_smiles = "O=C1OCc2cc(-c3ccc(-c4ccc(Cl)cc4)s3)ccc21"
recorded_measurement = "231 to 234 °C"

[[record]]
compound_smiles = "CN(C)CCCNC(=O)c1ccc(-c2ccc(-c3ccc4c(c3)COC4=O)s2)cc1"
recorded_measurement = "185 to 188 °C"

[[record]]
compound_smiles = "COc1cccc(-c2ccc(-c3ccc4c(c3)COC4=O)s2)c1"
recorded_measurement = "165 to 167 °C"

[[record]]
compound_smiles = "CN(C)CCNC(=O)c1ccc(-c2ccc(-c3ccc4c(c3)COC4=O)s2)cc1N"
recorded_measurement = "185 to 188 °C"

[[record]]
compound_smiles = "NC(=O)c1cccc(-c2ccc(-c3ccc4c(c3)COC4=O)s2)c1"
recorded_measurement = "259 to 263 °C"

[[record]]
compound_smiles = "O=C1OCc2cc(-c3ccc(-c4cccc(Cl)c4)s3)ccc21"
recorded_measurement = "207 to 209 °C"

[[record]]
compound_smiles = "COc1ccc(-c2ccc(-c3ccc4c(c3)COC4=O)s2)cc1"
recorded_measurement = "224 to 227 °C"

[[record]]
compound_smiles = "N#Cc1cccc(-c2ccc(-c3ccc4c(c3)COC4=O)s2)c1"
recorded_measurement = "250 to 251 °C"

[[record]]
compound_smiles = "CCOC(=O)c1ccc(-c2ccc(-c3ccc4c(c3)COC4=O)s2)cc1O"
recorded_measurement = "208 to 210 °C"


###

MEASUREMENT_DESCRIPTION: Solubility in water
TEST_CONDITIONS: water
List of solubility values.
READOUT_NAME: solubility (µg/mL)

[[record]]
compound_smiles = "NC(=O)CNC(=O)c1ccc(-c2ccc(-c3ccc4c(c3)COC4=O)s2)cc1O"
readout_name = "solubility"
recorded_measurement = 4.7

[[record]]
compound_smiles = "NC(=O)c1ccc(-c2ccc(-c3ccc4c(c3)COC4=O)s2)cc1N"
readout_name = "solubility"
recorded_measurement = 9.4

[[record]]
compound_smiles = "NC(=O)c1ccc(-c2ccc(-c3ccc4c(c3)COC4=O)s2)cn1"
readout_name = "solubility"
recorded_measurement = 0.204

[[record]]
compound_smiles = "O=C(NCCO)c1ccc(-c2ccc(-c3ccc4c(c3)COC4=O)s2)cc1O"
readout_name = "solubility"
recorded_measurement = 15.7

[[record]]
compound_smiles = "NC(=O)c1ccc(-c2ccc(-c3ccc4c(c3)COC4=O)s2)cc1O"
readout_name = "solubility"
recorded_measurement = 0.023


###

READOUT_NAME: melting point

[[record]]
molecule = "O=C1OCc2cc(-c3ccc(-c4cccc(O)c4)s3)ccc21"
recorded_measurement = "276 to 279 °C"

[[record]]
molecule = "CN1Cc2cc(-c3ccc(-c4ccc(C(N)=O)cc4)s3)ccc2C1=O [Compound 23b]"
recorded_measurement = "287 to 290 °C"

[[record]]
molecule = "O=C1OCc2cc(-c3ccc(-c4ccc(O)cc4)s3)ccc21"
recorded_measurement = "279 to 282 °C"

[[record]]
molecule = "CS(=O)(=O)c1ccc(-c2ccc(-c3ccc4c(c3)COC4=O)s2)cc1"
recorded_measurement = "278 to 280 °C"

[[record]]
molecule = "NS(=O)(=O)c1cccc(-c2ccc(-c3ccc4c(c3)COC4=O)s2)c1"
recorded_measurement = "273 to 276 °C"

[[record]]
molecule = "CN(C)CCNC(=O)c1ccc(-c2ccc(-c3ccc4c(c3)COC4=O)s2)cc1O"
recorded_measurement = "242 to 245 °C"

[[record]]
molecule = "Cc1ccccc1-c1ccc(-c2ccc3c(c2)COC3=O)s1"
recorded_measurement = "109 to 111 °C"

[[record]]
molecule = "O=C1OCc2cc(-c3ccc(-c4ccccc4Cl)s3)ccc21"
recorded_measurement = "131 to 133 °C"

[[record]]
molecule = "O=C1OCc2cc(-c3ccc(-c4ccncc4)s3)ccc21"
recorded_measurement = "260 to 261 °C"


The reported numbers originate from paper PMC4706532.
